B1: F1*; the commonest letter at each place (parent)
chain: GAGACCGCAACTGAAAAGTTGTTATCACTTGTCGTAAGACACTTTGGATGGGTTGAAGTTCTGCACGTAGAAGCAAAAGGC

- Variants of: B1
- test: fraction ligated after 30 min (ligated reads / total reads); higher = more ligase activity
- conditions: with F1*sub RNA substrate (template-directed ligation), 42 °C
Binary call on fraction ligated: Y from 0.8 upward, N beneath that.

// query Check this variant for fraction ligated at or above 0.8: GAGACCGCAACTGAAAAGTTGTTATCACTTGTCGTAAGACACATAGGATGGGTTGAAGTTCTGCACGTAGAAGCAAAAGGC [T43A T45A]
// result N

// query Check this variant for fraction ligated at or above 0.8: GAGACCGCAACTGAAAAGTTGTTATCAGTTGTCGTAAGACACTTCGGATGGGTTGAAGTTCTGCACGTAGAAGCAAAAGGC [C28G T45C]
// result N

// query Check this variant for fraction ligated at or above 0.8: GAGACCGCAACTGAAAAGTTGTTATCATTTGCCGTAAGACACTTTGGATGGGTTGAAGTTCTGCACGTAGAAGCAAAAGGC [C28T T32C]
// result N

// query Check this variant for fraction ligated at or above 0.8: GAGACCGCAACTGAAAAGTTGTTATCACTGGTCGTAAGACCCTTTGGATGGGTTGAAGTTCTGCACGTAGAAGCAAAAGGC [T30G A41C]
// result Y

// query Check this variant for fraction ligated at or above 0.8: GAGACCGCAACTGAAAAGTTGTTATCACTTGTCGTAATACAGTTTGGATGGGTTGAAGTTCTGCACGTAGAAGCAAAAGGC [G38T C42G]
// result Y

// query Check this variant for fraction ligated at or above 0.8: GAGACCGCAACTGAAAAGTTGTTATCACCTGTCGTAAGACACTTCGGATGGGTTGAAGTTCTGCACGTAGAAGCAAAAGGC [T29C T45C]
// result N

// query Check this variant for fraction ligated at or above 0.8: GAGACCGCAACTGAAAAGTTGTTATGACTTGTCGTAAGACACTTTTGATGGGTTGAAGTTCTGCACGTAGAAGCAAAAGGC [C26G G46T]
// result N

// query Check this variant for fraction ligated at or above 0.8: GAGACCGCAACTGAAAAGTTGTTGTCACTTGTCGTAAGACACTTTGGATGGGTTGATGTTCTGCACGTAGAAGCAAAAGGC [A24G A57T]
// result N

// query Check this variant for fraction ligated at or above 0.8: GAGACCGCAACTGAAAAGTTGTTATCACTTGTCGTAACACACTTTGGATGGGTTGAAGTTCTGCACGTAGAAGCAAAAGGC [G38C]
// result Y

// query Check this variant for fraction ligated at or above 0.8: GAGACCGCAACTGAAAAGTTGTTAACACTTGTCGTAAGACACTTTGGATGGGTTCAAGTTCTGCACGTAGAAGCAAAAGGC [T25A G55C]
// result N

// query Check this variant for fraction ligated at or above 0.8: GAGACCGCAACTGAAAAGTTGTTATCACTTGTCGTAAGACACTTTTGATGGGTTTAAGTTCTGCACGTAGAAGCAAAAGGC [G46T G55T]
// result N

// query Check this variant for fraction ligated at or above 0.8: GAGACCGCAACTGAAAAGTTGTTATCACTTGTCGTAAGACACTGTGGATTGGTTGAAGTTCTGCACGTAGAAGCAAAAGGC [T44G G50T]
// result N

// query Check this variant for fraction ligated at or above 0.8: GAGACCGCAACTGAAAAGTTGTTATCACTTGTGGAAAGACACTTTGGATGGGTTGAAGTTCTGCACGTAGAAGCAAAAGGC [C33G T35A]
// result Y

// query Check this variant for fraction ligated at or above 0.8: GAGACCGCAACTGAAAAGTTGTTCTCACTTGTCGTAAGACACTTTGGACGGGTTGAAGTTCTGCACGTAGAAGCAAAAGGC [A24C T49C]
// result N

// query Check this variant for fraction ligated at or above 0.8: GAGACCGCAACTGAAAAGTTGTTATCACTTGTCGTACGACACTTTGCATGGGTTGAAGTTCTGCACGTAGAAGCAAAAGGC [A37C G47C]
// result N

// query Check this variant for fraction ligated at or above 0.8: GAGACCGCAACTGAAAAGTTGTTATCACTTGTCGTAAGACACTTTGAATCGGTTGAAGTTCTGCACGTAGAAGCAAAAGGC [G47A G50C]
// result N

// query Check this variant for fraction ligated at or above 0.8: GAGACCGCAACTGAAAAGTTGTTAACACTTGTCGTAAGACGCTTTGGATGGGTTGAAGTTCTGCACGTAGAAGCAAAAGGC [T25A A41G]
// result N

// query Check this variant for fraction ligated at or above 0.8: GAGACCGCAACTGAAAAGTTGTCATCACTTGTCGTAAGACACTTTGGGTGGGTTGAAGTTCTGCACGTAGAAGCAAAAGGC [T23C A48G]
// result N

// query Check this variant for fraction ligated at or above 0.8: GAGACCGCAACTGAAAAGTTGTGATCACTTGTCGTAAGACCCTTTGGATGGGTTGAAGTTCTGCACGTAGAAGCAAAAGGC [T23G A41C]
// result N

// query Check this variant for fraction ligated at or above 0.8: GAGACCGCAACTGAAAAGTTGTTATGATTTGTCGTAAGACACTTTGGATGGGTTGAAGTTCTGCACGTAGAAGCAAAAGGC [C26G C28T]
// result N

// query Check this variant for fraction ligated at or above 0.8: GAGACCGCAACTGAAAAGTTGTTGTCACTAGTCGTAAGACACTTTGGATGGGTTGAAGTTCTGCACGTAGAAGCAAAAGGC [A24G T30A]
// result N

// query Check this variant for fraction ligated at or above 0.8: GAGACCGCAACTGAAAAGTTGTTATCACTTGTCGTAAGACACTGTGGATGGGTTGGAGTTCTGCACGTAGAAGCAAAAGGC [T44G A56G]
// result N

// query Check this variant for fraction ligated at or above 0.8: GAGACCGCAACTGAAAAGTTGTTAACACTTGTCGAAAGACACTTTGGATGGGTTGAAGTTCTGCACGTAGAAGCAAAAGGC [T25A T35A]
// result N

// query Check this variant for fraction ligated at or above 0.8: GAGACCGCAACTGAAAAGTTGTTATAACTTTTCGTAAGACACTTTGGATGGGTTGAAGTTCTGCACGTAGAAGCAAAAGGC [C26A G31T]
// result N

// query Check this variant for fraction ligated at or above 0.8: GAGACCGCAACTGAAAAGTTGTTACCACTTGTCGTAAGACACTGTGGATGGGTTGAAGTTCTGCACGTAGAAGCAAAAGGC [T25C T44G]
// result N

// query Check this variant for fraction ligated at or above 0.8: GAGACCGCAACTGAAAAGTTGTTATCACTTGTCCTAGGACACTTTGGATGGGTTGAAGTTCTGCACGTAGAAGCAAAAGGC [G34C A37G]
// result Y

// query Check this variant for fraction ligated at or above 0.8: GAGACCGCAACTGAAAAGTTGTTATCATTTGTCGTAAGACACTTTGGATAGGTTGAAGTTCTGCACGTAGAAGCAAAAGGC [C28T G50A]
// result N

// query Check this variant for fraction ligated at or above 0.8: GAGACCGCAACTGAAAAGTTGTTCTCACTTGTCGTAAGACACTTAGGATGGGTTGAAGTTCTGCACGTAGAAGCAAAAGGC [A24C T45A]
// result N

// query Check this variant for fraction ligated at or above 0.8: GAGACCGCAACTGAAAAGTTGTTATCACTTGTCGTAAGTCACTTAGGATGGGTTGAAGTTCTGCACGTAGAAGCAAAAGGC [A39T T45A]
// result N

// query Check this variant for fraction ligated at or above 0.8: GAGACCGCAACTGAAAAGTTGTTATCACTTGTTGTAAGACACTTTGGATGGGTTGATGTTCTGCACGTAGAAGCAAAAGGC [C33T A57T]
// result Y

// query Check this variant for fraction ligated at or above 0.8: GAGACCGCAACTGAAAAGTTGTTATCACTTGCCGTAAGACACTTTGGATGGGTTGATGTTCTGCACGTAGAAGCAAAAGGC [T32C A57T]
// result N

// query Check this variant for fraction ligated at or above 0.8: GAGACCGCAACTGAAAAGTTGTTATCACTTGTCGTAAGCCACTTTGGATTGGTTGAAGTTCTGCACGTAGAAGCAAAAGGC [A39C G50T]
// result N

// query Check this variant for fraction ligated at or above 0.8: GAGACCGCAACTGAAAAGTTGTTATCACTTGTCGGAAGACTCTTTGGATGGGTTGAAGTTCTGCACGTAGAAGCAAAAGGC [T35G A41T]
// result Y
